Record set of Ki for target or system VMAT2 (human platelet homogenate) (Homo sapiens (Human)).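 Further: competition binding with 90 min incubation at 25 °C, after which filter-retained radioligand was measured by scintillation counting.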
measured-endpoint: Ki

| compound | assay-result |
| --- | --- |
| COc1cc2c(cc1OC)[C@H]1C[C@@H](COC(=O)[C@@H]3COCCN3)[C@H](CC(C)C)CN1CC2 [Compound 4-3] | 10 to 500 nM |
| COc1cc2c(cc1OC)[C@H]1C[C@@H](COC(=O)N(C)C(C(=O)O)C(C)C)[C@H](CC(C)C)CN1CC2 (stereo partly shown) [Compound 5-32] | < 10 nM |
| COc1cc2c(cc1OC)[C@H]1C[C@@H](COC(=O)CCn3cnnn3)[C@H](CC(C)C)CN1CC2 [Compound 2-13] | < 10 nM |
| COc1cc2c(cc1OC)[C@H]1C[C@@H](COC(=O)CC(=O)O)[C@H](CC(C)C)CN1CC2 [Compound 3-2] | < 10 nM |
| COc1cc2c(cc1OC)[C@H]1C[C@@H](COC(=O)CCn3c(=O)oc4ccccc43)[C@H](CC(C)C)CN1CC2 [Compound 2-39] | < 10 nM |
| COc1cc2c(cc1OC)[C@H]1C[C@@H](COC(=O)C3COCCN3)[C@H](CC(C)C)CN1CC2 (stereo partly shown) [Compound 4-32] | 10 to 500 nM |
| COc1cc2c(cc1OC)[C@H]1C[C@@H](COC(=O)CC(N)=O)[C@H](CC(C)C)CN1CC2 [Compound 2-9] | < 10 nM |
| COc1cc2c(cc1OC)[C@H]1C[C@@H](COC(=O)CCCN)[C@H](CC(C)C)CN1CC2 [Compound 4-31] | < 10 nM |
| COc1cc2c(cc1OC)[C@H]1C[C@@H](COC(=O)N(C)C)[C@H](CC(C)C)CN1CC2 [Compound 5-29] | 10 to 500 nM |
| COc1cc2c(cc1OC)[C@H]1C[C@@H](COC(=O)N3CCNC(=O)C3C)[C@H](CC(C)C)CN1CC2 (stereo partly shown) [Compound 5-21] | < 10 nM |
| COc1cc2c(cc1OC)[C@H]1C[C@@H](COC(=O)N3CC(C)NC(C)C3)[C@H](CC(C)C)CN1CC2 (stereo partly shown) [Compound 6-11] | < 10 nM |
| COc1cc2c(cc1OC)[C@H]1C[C@@H](COC(=O)[C@@H]3CCCNC3)[C@H](CC(C)C)CN1CC2 [Compound 4-29] | < 10 nM |
| COc1cc2c(cc1OC)[C@H]1C[C@@H](COC(=O)[C@@H](N)Cc3ccccc3)[C@H](CC(C)C)CN1CC2 [Compound 4-2] | < 10 nM |
| COc1cc2c(cc1OC)[C@H]1C[C@@H](COCC3CCNC3)[C@H](CC(C)C)CN1CC2 (stereo partly shown) [Compound 10-6] | < 10 nM |
| COc1cc2c(cc1OC)[C@H]1C[C@@H](COC(=O)N3CCN[C@H](C#N)C3)[C@H](CC(C)C)CN1CC2 [Compound 6-9] | < 10 nM |
| CCOC[C@@H]1C[C@@H]2c3cc(OC)c(OC)cc3CCN2C[C@H]1CC(C)C [Compound 9-8] | < 10 nM |
